Data provenance is paper PMC9406419.

# Lookup of reported pIC50 keyed by entry
- system tested: recombinant human ARG2 (Homo sapiens, UniProt P78540)
- Construct: made in house; host or cells: E. coli
- Sequence (P78540 23-354): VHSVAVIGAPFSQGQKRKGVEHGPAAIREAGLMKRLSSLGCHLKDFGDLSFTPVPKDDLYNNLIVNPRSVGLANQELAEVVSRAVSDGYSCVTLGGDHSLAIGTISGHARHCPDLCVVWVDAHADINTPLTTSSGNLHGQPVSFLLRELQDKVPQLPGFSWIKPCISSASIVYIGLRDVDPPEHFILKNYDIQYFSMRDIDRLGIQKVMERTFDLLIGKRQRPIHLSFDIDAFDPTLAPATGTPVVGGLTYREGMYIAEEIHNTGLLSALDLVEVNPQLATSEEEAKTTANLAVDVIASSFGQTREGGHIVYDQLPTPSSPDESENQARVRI
- test details: Recombinant arginase inhibition assay (colorimetric urea detection), ARG2
- Assay type: biochemical
- test settings: recombinant human ARG2, 20 mM L-arginine, 37 °C, 1 h, pH 7.4
A value of pIC50 is the negative decimal logarithm of a concentration given in moles per litre.

>>> meas_value("C[C@H](N)C(=O)N1C[C@H](CCCB(O)O)[C@](N)(C(=O)O)C1 [ref. ARGi, numidargistat, reference compound]")
6.47

Consider now this further molecule.
Query: Would you kindly share the measured pIC50 for `CN(C)C[C@@H]1CC[C@@H](CCB(O)O)C[C@]1(N)C(=O)O` ?
Response: 7.47
